Target: Strep-tagged TssK (EAEC) (enteroaggregative Escherichia coli (EAEC) 17-2)
Assay: ITC; 25 μM TssK in the cell, 1 mM peptide in the syringe; 50 mM HEPES pH 7.0, 150 mM NaCl, 25°C; One Set of Sites model
pKd: −log10 of the molar value.
VALUE_TYPE: pKd

> print(dat)
                                     binder  value.type  result
1  SRPVMGSRPVMGSRPVMG (head-to-tail cyclization) [biomimetic cyclic peptide (BCP)]         pKd    4.22
